# system: human P2Y12 receptor (Homo sapiens)
# Sequence (Q9H244 whole entry): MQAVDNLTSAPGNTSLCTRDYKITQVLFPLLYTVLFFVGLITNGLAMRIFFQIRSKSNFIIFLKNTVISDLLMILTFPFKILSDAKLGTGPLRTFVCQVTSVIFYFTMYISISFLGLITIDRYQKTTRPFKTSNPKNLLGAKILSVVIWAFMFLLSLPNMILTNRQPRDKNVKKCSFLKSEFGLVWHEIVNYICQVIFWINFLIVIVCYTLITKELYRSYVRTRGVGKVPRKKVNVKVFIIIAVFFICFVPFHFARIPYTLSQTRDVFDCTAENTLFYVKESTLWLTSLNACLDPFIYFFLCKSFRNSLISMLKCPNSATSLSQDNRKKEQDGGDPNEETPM
# experimental_protocol: Human P2Y12 recombinant cell membrane binding assay with 33P 2MeS-ADP
# applied_conditions: competition against 33P 2MeS-ADP, membranes of CHO cells with recombinant human P2Y12 receptor
pIC50: −log10 of the molar value.

chemical_structure | pIC50
CCCCOC(=O)N1CCN(C(=O)[C@H](CCC(=O)OCC)NC(=O)c2cc(OCC(=O)N3CCC[C@H]3C(=O)NC3CCC3)n(-c3ccccc3)n2)CC1 | 8.30
O=C(NCC(=O)N1CCN(C(=O)OC2CCC2)CC1)c1cc(OCC(=O)N2CCC[C@H]2C(=O)NC2CCC2)n(-c2ccccc2)n1 | 6.88
O=C(O)CC[C@H](NC(=O)c1cc(OCC(=O)N2CCC[C@H]2C(=O)NC2CCC2)n(-c2ccccc2)n1)C(=O)N1CCN(C(=O)OC2CCC2)CC1 | 7.89
CCOC(=O)N1CCN(C(=O)[C@H](CNC(=O)OC)NC(=O)c2cc(OCC(=O)N3CCC[C@H]3C(=O)NC3CCC3)n(-c3ccccc3)n2)CC1 | 6.95
CCCCOC(=O)N1CCN(C(=O)[C@H](CC2CCCCC2)NC(=O)c2cc(OCC(=O)N3CCC[C@H]3C(=O)NC3CCC3)n(-c3ccccc3)n2)CC1 | 6.87
CCCOC(=O)CC[C@H](NC(=O)c1cc(OCC(=O)N2CCC[C@H]2C(=O)NC2CCC2)n(-c2ccccc2)n1)C(=O)N1CCN(C(=O)OCC)CC1 | 7.38
CCCCOC(=O)N1CCN(C(=O)[C@@H](C)NC(=O)c2cc(OCC(=O)N3CCC[C@H]3C(=O)NC3CCC3)n(-c3ccccc3)n2)CC1 | 7.74
CCCCOC(=O)N1CCN(C(=O)[C@@H](NC(=O)c2cc(OCC(=O)N3CCC[C@H]3C(=O)NC3CCC3)n(-c3ccccc3)n2)[C@H](C)CC)CC1 | 7.66
